- System: human TRα-1 and TRβ-1
- Method notes: TR biosensors
- Assay type: cell-based
- Test parameters: both biosensor strains
Readout name: TR biosensors, qualitative activity

[
  {
    "Compound string": "CC(C)c1cc(Oc2c(Cl)cc(CC(=O)O)cc2Cl)ccc1O",
    "Readout name": "TR biosensors, qualitative activity",
    "Experimental result": "Agonist, TRβ selective"
  },
  {
    "Compound string": "Cc1cc(OCC(=O)O)cc(C)c1Cc1ccc(O)c(C(C)C)c1",
    "Readout name": "TR biosensors, qualitative activity",
    "Experimental result": "Agonist, TRβ selective"
  },
  {
    "Compound string": "O=C(O)Cc1cc(I)c(Oc2ccc(O)c(I)c2)c(I)c1",
    "Readout name": "TR biosensors, qualitative activity",
    "Experimental result": "Agonist, TRβ selective"
  }
]
